- PROCEDURE_DETAILS: Bioavailability in dog at 2.5 mg/kg, iv
- Format: ADME, organism-based, Canis lupus familiaris
- SETUP_CONDITIONS: in vivo
METRIC: bioavailability (%)

>  <CHEMICAL_STRING>
Cc1cc(Cc2ccc(Cl)c(Oc3cc(F)cc(C#N)c3)c2F)n[nH]c1=O

>  <VALUE_REPORTED>
34

$$$$

====

- TARGET_DESC: Human immunodeficiency virus type 1 reverse transcriptase (Human immunodeficiency virus 1)
pIC50: −log10 of the molar value.
pIC50 listing for selected compounds.

>  <CHEMICAL_STRING>
O=c1ccc(Cc2cccc(Oc3cccc(Cl)c3)c2)n[nH]1

>  <pIC50>
4.68

$$$$
>  <CHEMICAL_STRING>
O=c1ccc(Cc2cc(Oc3cccc(Cl)c3)c3occc3c2)n[nH]1

>  <pIC50>
6.00

$$$$
>  <CHEMICAL_STRING>
O=c1ccc(Cc2ccc(Cl)c(Oc3ccccc3)c2F)n[nH]1

>  <pIC50>
7.00

$$$$
>  <CHEMICAL_STRING>
Cc1cc(Cc2ccc(Cl)c(Oc3ccccc3)c2F)n[nH]c1=O

>  <pIC50>
7.70

$$$$
>  <CHEMICAL_STRING>
Cc1cc(Cc2ccc(Cl)c(Oc3ccccc3)c2)n[nH]c1=O

>  <pIC50>
6.44

$$$$
>  <CHEMICAL_STRING>
Cc1ccc(Cc2ccc(=O)[nH]n2)cc1Oc1cccc(Cl)c1

>  <pIC50>
6.19

$$$$
>  <CHEMICAL_STRING>
O=c1ccc(Cc2ccc(Cl)c(Oc3cccc(Cl)c3)c2)n[nH]1

>  <pIC50>
7.00

$$$$
>  <CHEMICAL_STRING>
O=c1ccc(Cc2ccc(Cl)c(Oc3ccccc3)c2)n[nH]1

>  <pIC50>
6.28

$$$$
>  <CHEMICAL_STRING>
Cc1cc(Cl)cc(Oc2cccc(Cc3ccc(=O)[nH]n3)c2)c1

>  <pIC50>
4.85

$$$$
>  <CHEMICAL_STRING>
O=C(c1ccc(Cl)cc1)c1cc(Cc2ccc(=O)[nH]n2)cc2ccoc12

>  <pIC50>
6.40

$$$$
>  <CHEMICAL_STRING>
O=C(c1cccc(Cl)c1)c1cc(Cc2ccc(=O)[nH]n2)cc2ccoc12

>  <pIC50>
5.09

$$$$
>  <CHEMICAL_STRING>
O=c1ccc(Cc2cc(Cc3cccc(Cl)c3)c3occc3c2)n[nH]1

>  <pIC50>
5.41

$$$$

====

- TARGET_DESC: UniProt P08684
- Sequence (P08684 whole entry): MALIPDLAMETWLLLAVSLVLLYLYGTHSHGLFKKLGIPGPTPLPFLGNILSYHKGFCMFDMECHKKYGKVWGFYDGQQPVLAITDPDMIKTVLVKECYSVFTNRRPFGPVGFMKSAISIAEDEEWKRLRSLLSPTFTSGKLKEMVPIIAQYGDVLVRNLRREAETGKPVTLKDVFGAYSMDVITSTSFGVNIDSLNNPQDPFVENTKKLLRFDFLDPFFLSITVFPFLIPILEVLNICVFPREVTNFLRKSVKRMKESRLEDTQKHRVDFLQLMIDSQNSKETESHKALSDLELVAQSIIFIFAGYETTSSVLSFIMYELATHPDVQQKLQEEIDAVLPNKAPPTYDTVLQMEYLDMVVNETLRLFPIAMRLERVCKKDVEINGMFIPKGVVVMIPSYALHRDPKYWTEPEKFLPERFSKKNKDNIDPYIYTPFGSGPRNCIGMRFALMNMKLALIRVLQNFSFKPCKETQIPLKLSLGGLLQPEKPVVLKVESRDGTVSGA
- PROCEDURE_DETAILS: Inhibition of recombinant CYP3A4

>  <CHEMICAL_STRING>
Cc1cc(Cc2ccc(Cl)c(Oc3cc(F)cc(C#N)c3)c2F)n[nH]c1=O

>  <IC50 (nM)>
24000

$$$$
>  <CHEMICAL_STRING>
O=C(c1cccc(Cl)c1)c1cc(Cc2ccc(=O)[nH]n2)cc2ccoc12

>  <IC50 (nM)>
600

$$$$
>  <CHEMICAL_STRING>
O=c1ccc(Cc2cc(Oc3cccc(Cl)c3)c3occc3c2)n[nH]1

>  <IC50 (nM)>
410

$$$$
>  <CHEMICAL_STRING>
O=c1ccc(Cc2cc(Cc3cccc(Cl)c3)c3occc3c2)n[nH]1

>  <IC50 (nM)>
180

$$$$

Reference for the values: ChEMBL document CHEMBL1155885
